# target_desc: His6-Flag-TEV-NLRP3 (134-1036) (Homo sapiens, UniProt Q96P20)
# Construct: fused on or other part: N-terminal His6 tag, Flag tag and TEV cleavage site
# Sequence (Q96P20 134-1036 limits assumed): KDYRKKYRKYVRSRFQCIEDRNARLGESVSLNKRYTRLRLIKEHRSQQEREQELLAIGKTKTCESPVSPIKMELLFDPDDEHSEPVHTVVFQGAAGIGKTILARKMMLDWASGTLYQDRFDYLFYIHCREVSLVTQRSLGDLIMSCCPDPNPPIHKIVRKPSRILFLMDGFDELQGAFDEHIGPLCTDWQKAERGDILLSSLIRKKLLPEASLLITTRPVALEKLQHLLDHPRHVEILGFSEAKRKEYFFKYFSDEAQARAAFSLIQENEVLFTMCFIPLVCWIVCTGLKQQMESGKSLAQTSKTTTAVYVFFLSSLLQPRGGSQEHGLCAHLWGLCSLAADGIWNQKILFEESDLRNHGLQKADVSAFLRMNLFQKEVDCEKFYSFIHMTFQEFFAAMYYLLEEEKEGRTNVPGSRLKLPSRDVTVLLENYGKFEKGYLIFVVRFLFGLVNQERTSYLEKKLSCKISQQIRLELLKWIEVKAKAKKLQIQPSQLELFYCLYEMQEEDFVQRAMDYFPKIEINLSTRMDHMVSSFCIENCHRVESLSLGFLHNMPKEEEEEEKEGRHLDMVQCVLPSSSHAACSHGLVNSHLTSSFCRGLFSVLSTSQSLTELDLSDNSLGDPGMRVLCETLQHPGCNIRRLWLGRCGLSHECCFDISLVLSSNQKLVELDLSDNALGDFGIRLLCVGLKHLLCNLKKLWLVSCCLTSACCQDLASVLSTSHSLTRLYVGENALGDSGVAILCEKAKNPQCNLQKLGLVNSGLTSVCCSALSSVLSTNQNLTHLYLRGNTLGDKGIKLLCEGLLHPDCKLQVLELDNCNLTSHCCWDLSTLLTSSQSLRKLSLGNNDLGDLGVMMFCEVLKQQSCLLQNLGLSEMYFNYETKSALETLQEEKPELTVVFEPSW
# assay_text: NLRP3 fluorescence polarization (FP) binding assay, competition with probe NP3-301
# test_parameters: competition with NP3-301 for binding to NLRP3 (134-1036), 30 nM protein
pIC50: −log10 of the molar value.
parameter_measured: pIC50

{"smiles_record": "Cc1cc(C(F)(F)F)cc(O)c1-c1ccc2oc(NC[C@@H]3COCCN3S(C)(=O)=O)nc2n1", "pIC50": "≥ 7.00"}
{"smiles_record": "CCN1CCC[C@@H](Nc2nc3c(C)cc(-c4c(C)cc(C(F)(F)F)cc4O)nn3n2)C1", "pIC50": "≥ 7.00"}

[ask] What does the data say about its pIC50? Entry: Cc1cc(C)c(-c2ccc3oc(N4CCOCC4)nc3n2)c(O)c1
[reply] ≥ 7.00
